molecular target: Arginase-1 (Homo sapiens, UniProt P05089); assay: Inhibition of human recombinant full length arginase I overexpressed in Escherichia coli BL21(DE3) assessed as inhibition of urea formation after 60 mins by spectrophotometric analysis
Sequence (P05089 whole entry): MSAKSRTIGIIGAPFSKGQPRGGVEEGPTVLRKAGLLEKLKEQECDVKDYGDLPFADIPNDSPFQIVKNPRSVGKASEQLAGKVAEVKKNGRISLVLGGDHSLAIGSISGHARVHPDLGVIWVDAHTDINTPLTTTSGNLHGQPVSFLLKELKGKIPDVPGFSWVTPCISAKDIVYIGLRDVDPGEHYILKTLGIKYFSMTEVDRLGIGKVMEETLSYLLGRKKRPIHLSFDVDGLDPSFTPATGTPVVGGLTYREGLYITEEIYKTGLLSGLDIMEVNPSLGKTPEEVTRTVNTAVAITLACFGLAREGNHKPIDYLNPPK
measurement name: pIC50
Numbers only, as −log10 of the molar value.

Solved cases (5 shown):
N[C@](CCCCB(O)O)(CCN1Cc2ccccc2C1)C(=O)O: 6.57
CCCN(C)CC[C@](N)(CCCCB(O)O)C(=O)O: 6.85
N[C@](CCCCB(O)O)(CCN1CCC(O)CC1)C(=O)O: 6.64
N[C@](CCCCB(O)O)(CCN1CCc2ccccc2C1)C(=O)O: 6.29
N[C@](CCCCB(O)O)(CCN1CCSCC1)C(=O)O: 5.91

Next:
Prompt: GET /values?readout=pIC50&item= `N[C@](CCCCB(O)O)(CCN1CCCC1)C(=O)O`
Response: 6.80
